- assay.summary: qHTS assay for small molecule disruptors of the mitochondrial membrane potential - cell viability (AID 720634); further: nearly all actives have a fitted effect of over 20% in size
- condition: HepG2 viability, ATP luminescence (CellTiter-Glo), 1 h; series mostly up to 83.2 µM
- Procedure: U.S. Tox21 Program National Center for Advancing Translational Sciences [NCATS] NIH Chemical Genomics Center [NCGC] U.S. Environmental Protection Agency [EPA] National Institutes of Environmental Health Sciences [NIEHS] National Toxicology Program [NTP] […] Measuring MMP in living cells is commonly used to assess the effect of chemicals on mitochondrial function; decreases in MMP can be detected using lipophilic cationic fluorescent dyes. […] The cytotoxicity was measured in the same assay well of MMP assay. […]
Inconclusive results are not listed. Active and inactive are the calls of the source. The call rests on the fitted dose curve.
API: response.call in active, inactive

Illustrative cases are given below, each with its answer.
compound: CCCCCCCCCCCCCCCCCC(=O)OCC(C)O (centres undefined)
qualitative.label: inactive

compound: CN1CCC(OC(=O)C(Oc2ccc(Cl)cc2)Oc2ccc(Cl)cc2)CC1
qualitative.label: inactive

compound: NCc1ccccc1CC(=O)N[C@@H]1C(=O)N2C(C(=O)O)=C(CSc3nnnn3CC(=O)O)CS[C@H]12
qualitative.label: inactive

Attention now turns to another entry.
Tell me the recorded outcome of this test for CSc1nc2cc(Oc3cccc(Cl)c3Cl)c(Cl)cc2[nH]1 .
active

Data provenance: PubChem BioAssay (Tox21)
